Attribution: paper PMC10786891

Exercise: state measured pKd for each of the binders provided.
- study system: T1, EsCas13d, nuclease-dead (Eubacterium siraeum, UniProt B0MS50, R295A;H300A;R849A;H854A)
- T1 sequence: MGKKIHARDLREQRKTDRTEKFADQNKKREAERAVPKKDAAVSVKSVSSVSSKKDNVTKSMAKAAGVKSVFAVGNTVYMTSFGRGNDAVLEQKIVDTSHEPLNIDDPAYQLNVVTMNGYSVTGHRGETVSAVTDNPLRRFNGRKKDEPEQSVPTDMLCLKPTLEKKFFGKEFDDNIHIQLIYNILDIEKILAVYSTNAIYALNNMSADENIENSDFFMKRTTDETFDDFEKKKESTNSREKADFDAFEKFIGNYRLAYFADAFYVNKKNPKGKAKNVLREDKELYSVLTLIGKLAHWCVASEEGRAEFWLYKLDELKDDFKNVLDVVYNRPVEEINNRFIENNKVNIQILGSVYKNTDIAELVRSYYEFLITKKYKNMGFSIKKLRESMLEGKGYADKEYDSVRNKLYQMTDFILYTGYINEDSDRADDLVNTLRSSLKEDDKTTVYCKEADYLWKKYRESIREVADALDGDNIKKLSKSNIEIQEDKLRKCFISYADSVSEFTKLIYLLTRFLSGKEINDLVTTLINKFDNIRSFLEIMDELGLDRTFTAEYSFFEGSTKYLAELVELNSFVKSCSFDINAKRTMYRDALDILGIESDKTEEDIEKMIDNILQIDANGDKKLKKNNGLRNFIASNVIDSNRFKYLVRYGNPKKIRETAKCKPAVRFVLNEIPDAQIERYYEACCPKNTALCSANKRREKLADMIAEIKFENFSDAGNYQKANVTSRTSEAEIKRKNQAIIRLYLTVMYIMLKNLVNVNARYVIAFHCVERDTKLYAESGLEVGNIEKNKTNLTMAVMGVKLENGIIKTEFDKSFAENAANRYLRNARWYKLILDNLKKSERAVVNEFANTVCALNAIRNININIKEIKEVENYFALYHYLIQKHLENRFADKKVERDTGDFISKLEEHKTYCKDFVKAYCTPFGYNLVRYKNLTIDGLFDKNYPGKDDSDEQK
- protocol description: crRNA (strand 1, pre-loaded); Mg2+; 40 mM Tris-HCl pH 7.5, 150 mM NaCl, 6 mM MgCl2, 1 mM DTT, 0.1% Tween-20, 0.2 mg/ml BSA; 25 C; 10 min per concentration, then washed
- conditions used: tags: His6-TwinStrep-SUMO cleaved; N-terminal SNAP kept (SNAP-Surface 488); label: 3' end held by stalled T7 RNA polymerase
Give bare numbers, as −log10 of the molar value.

Before answering, review these 2 worked examples.
{"columns": ["binder", "pKd"],
 "data": [
  ["target 1 G13A,G17U (mixed) RNA 1: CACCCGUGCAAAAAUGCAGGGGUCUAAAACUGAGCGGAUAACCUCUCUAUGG RNA 2: GGGAAUGGAUCCACAUCUACGAAUUCGUACCAUAUAGAAGUUAUCCGCUCACCGAGAUCGGAAGAGCACACGU", 7.54],
  ["target 2 MT 5'PFS AGC 3'PFS ACU (mixed) RNA 1: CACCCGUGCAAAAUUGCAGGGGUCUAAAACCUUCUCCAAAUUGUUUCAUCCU RNA 2: GGGAAUGGAUCCACAUCUACGAAUUCAGCAGGAUGAAACAAUUUGGAGAAGACUAGAUCGGAAGAGCACACGU", 7.77]
]}

We now examine a further binder.
# query: pKd of entry target 3 A11G,A18G (mixed) RNA 1: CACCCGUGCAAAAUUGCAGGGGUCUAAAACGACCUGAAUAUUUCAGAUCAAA RNA 2: GGGAAUGGAUCCACAUCUACGAAUUCGUUUUUGGUCUGAAGUAUUCAGGUCUGCAGAUCGGAAGAGCACACGU
7.15
